assayedTarget: α2 receptor (Rattus norvegicus)
Construct: plasmic membranes of rat brains; from tissue; host or cells: rat brain plasma membranes
Sequence (P22909 1-465): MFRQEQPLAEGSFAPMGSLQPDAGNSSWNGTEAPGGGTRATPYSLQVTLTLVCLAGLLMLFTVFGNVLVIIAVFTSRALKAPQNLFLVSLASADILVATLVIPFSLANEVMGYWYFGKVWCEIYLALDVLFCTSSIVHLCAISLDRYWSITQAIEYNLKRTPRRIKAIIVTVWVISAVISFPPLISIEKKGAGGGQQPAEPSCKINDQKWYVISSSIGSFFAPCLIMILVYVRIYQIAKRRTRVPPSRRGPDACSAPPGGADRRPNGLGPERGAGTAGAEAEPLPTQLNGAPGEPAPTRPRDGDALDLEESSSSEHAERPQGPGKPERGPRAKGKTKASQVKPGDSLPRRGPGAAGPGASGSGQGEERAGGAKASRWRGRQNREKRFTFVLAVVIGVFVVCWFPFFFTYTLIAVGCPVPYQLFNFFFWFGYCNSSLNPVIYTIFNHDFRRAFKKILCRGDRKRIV
methodDescription: Displacement of 3H clonidine, plasmic membranes of rat brains
Format: binding
protocolConditions: rat brain membranes; 3H clonidine 1.2×10^-9 M
Collected pEC50 values appear next to each entry.
Quick note: pEC50 values are minus log10 of concentrations in mol/L.

Sample records with pEC50:
Incoming: Sample NC(=O)Cc1ccc(OCC(O)CNCCc2c[nH]c3ccccc23)cc1 (stereo not shown) [compound 7748] — what was its pEC50?
Outgoing: 7.53

Incoming: Sample Cc1ccccc1OC[C@H](O)CN[C@H](CO)Cc1c[nH]c2ccccc12 [compound 7903] — what was its pEC50?
Outgoing: 7.53

Incoming: Sample Cc1cccc(OCC(O)CNC(C)Cc2c[nH]c3ccccc23)c1 (stereo not shown) [compound 7782] — what was its pEC50?
Outgoing: 7.52

// switching to the query molecule
Incoming: Sample Cc1ccccc1OCC(O)CNC(C)(C)Cc1c[nH]c2ccccc12 (stereo not shown) [compound 7854] — what was its pEC50?
Outgoing: 8.22

====

assayedTarget: β2 receptors (Rattus norvegicus)
Construct: lungs of rats (β2 receptors); from tissue; host or cells: rat lung plasma membranes
methodDescription: Displacement of 3H dihydroalprenolol, plasmic membranes of lungs of rats
Format: binding
protocolConditions: read-out: EC50 of DISPLACEMENT of 3H DIHYDROALPRENOLOL, Lung (β2); rat lung membranes; 3H dihydroalprenolol 4×10^-9 M
assayReadout: EC50 (µM)
Field format: number, assumed µM, no unit text.

Incoming: Record Cc1ccccc1OCC(O)CNC(CO)Cc1c[nH]c2ccccc12 (racemic) : what is its EC50 with β2 receptors (Rattus norvegicus)?
Outgoing: 0.155

====

assayedTarget: β1 receptor (Canis lupus familiaris, UniProt P79148)
Construct: plasmic membranes of hearts of dogs (β1 receptor); from tissue; host or cells: dog heart plasma membranes
Sequence (P79148 whole entry): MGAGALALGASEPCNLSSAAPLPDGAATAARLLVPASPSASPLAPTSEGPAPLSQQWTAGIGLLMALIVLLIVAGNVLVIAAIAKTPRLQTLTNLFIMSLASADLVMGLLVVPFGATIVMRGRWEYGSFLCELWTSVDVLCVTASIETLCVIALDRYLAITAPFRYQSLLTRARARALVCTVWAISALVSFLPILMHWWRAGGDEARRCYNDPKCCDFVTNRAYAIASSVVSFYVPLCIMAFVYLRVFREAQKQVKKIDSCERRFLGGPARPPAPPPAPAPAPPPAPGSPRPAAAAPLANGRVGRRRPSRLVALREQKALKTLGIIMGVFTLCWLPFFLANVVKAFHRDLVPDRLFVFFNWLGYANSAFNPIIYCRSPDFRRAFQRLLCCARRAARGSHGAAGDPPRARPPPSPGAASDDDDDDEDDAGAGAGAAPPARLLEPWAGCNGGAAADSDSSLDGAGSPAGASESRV
methodDescription: Displacement of 3H dihydroalprenolol, plasmic membranes of hearts of dogs
Type: binding, dog
protocolConditions: read-out: EC50 of DISPLACEMENT of 3H DIHYDROALPRENOLOL, Heart (β1); dog heart membranes; 3H dihydroalprenolol 4×10^-9 M
Protocol: The binding tests are effected on suspensions of plasmic membranes coming from various organs. The suspensions of membranes are placed in incubation with the tritiated ligand and various concentrations of products to be tested. After incubation, each test is filtered on GFB(Whatman) filter, the filters are dried and introduced into counting flasks. The measurement of the radioactivity is assessed by scintillation in a liquid medium. […]
assayReadout: EC50 (µM)
Field format: number, assumed µM, no unit text.

Incoming: Sample Cc1ccccc1OCC(O)CNC(CO)Cc1c[nH]c2ccccc12 (racemic) — what was its EC50?
Outgoing: 0.215

====

Collected pEC50 values appear next to each entry.
assayedTarget: β2 receptors (Rattus norvegicus, UniProt P10608)
Construct: lungs of rats (β2 receptors); from tissue; host or cells: rat lung plasma membranes
Sequence (P10608 whole entry): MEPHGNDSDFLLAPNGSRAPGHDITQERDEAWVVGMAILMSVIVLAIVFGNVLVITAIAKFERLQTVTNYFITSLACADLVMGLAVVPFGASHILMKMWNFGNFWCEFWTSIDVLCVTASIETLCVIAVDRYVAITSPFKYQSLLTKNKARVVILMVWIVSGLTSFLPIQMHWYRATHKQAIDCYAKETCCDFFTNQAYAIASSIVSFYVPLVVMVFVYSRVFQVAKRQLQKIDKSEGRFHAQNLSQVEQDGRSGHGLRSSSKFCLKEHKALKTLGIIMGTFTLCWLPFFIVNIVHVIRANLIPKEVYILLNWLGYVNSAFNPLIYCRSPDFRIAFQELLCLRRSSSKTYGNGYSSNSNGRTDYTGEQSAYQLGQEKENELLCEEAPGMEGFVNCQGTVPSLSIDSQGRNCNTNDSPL
methodDescription: Displacement of 3H dihydroalprenolol, plasmic membranes of lungs of rats
Format: binding
Quick note: pEC50 values are minus log10 of concentrations in mol/L.

Sample records with pEC50:
Incoming: Record Cc1cccc(OCC(O)CNC(C)Cc2c[nH]c3ccccc23)c1 (stereo not drawn) [compound 7782] : what is its pEC50 with β2 receptors (Rattus norvegicus, UniProt P10608)?
Outgoing: 7.21

Incoming: Record CC(Cc1c[nH]c2ccccc12)NCC(O)COc1cccc2[nH]ccc12 (stereo not drawn) [compound 7874] : what is its pEC50 with β2 receptors (Rattus norvegicus, UniProt P10608)?
Outgoing: 8.09

Incoming: Record CC(Cc1c[nH]c2ccccc12)NCC(O)COc1ccccc1Cl (stereo not drawn) [compound 7806] : what is its pEC50 with β2 receptors (Rattus norvegicus, UniProt P10608)?
Outgoing: 7.92

Incoming: Record Cc1ccccc1OCC(O)CNC(C)Cc1c[nH]c2ccc(F)cc12 (stereo not drawn) [compound 7983] : what is its pEC50 with β2 receptors (Rattus norvegicus, UniProt P10608)?
Outgoing: 7.33

Incoming: Record CC(Cc1c[nH]c2ccccc12)NCC(O)COc1ccccc1[N+](=O)[O-] (stereo not drawn) [compound 7808] : what is its pEC50 with β2 receptors (Rattus norvegicus, UniProt P10608)?
Outgoing: 7.62

Incoming: Record CC(Cc1c[nH]c2ccccc12)NCC(O)COc1ccccc1C(=O)c1ccccc1 (stereo not drawn) [compound 7904] : what is its pEC50 with β2 receptors (Rattus norvegicus, UniProt P10608)?
Outgoing: 7.85

Others:
Incoming: Record CC(Cc1c[nH]c2ccc(F)cc12)NCC(O)COc1ccccc1 (stereo not drawn) [compound 40038] : what is its pEC50 with β2 receptors (Rattus norvegicus, UniProt P10608)?
Outgoing: 7.54

Incoming: Record CC(Cc1c[nH]c2ccccc12)NCC(O)COc1ccccc1C#N (stereo not drawn) [compound 7824] : what is its pEC50 with β2 receptors (Rattus norvegicus, UniProt P10608)?
Outgoing: 8.00

Incoming: Record Cc1ccccc1OCC(O)CNC(C)Cc1c[nH]c2ccccc12 (stereo not drawn) [compound 7744] : what is its pEC50 with β2 receptors (Rattus norvegicus, UniProt P10608)?
Outgoing: 7.28

====

assayedTarget: β adrenergic receptors (β1) (Canis lupus familiaris, UniProt P79148)
Construct: The dog is anaesthetized using sodium pentobarbital; from tissue; host or cells: whole anaesthetized dog (heart)
Sequence (P79148 whole entry): as the sequence (P79148 whole entry) above
methodDescription: Antagonism of the effects of isoprenaline, tachycardia (β1), anaesthetized dog, IV
Format: in vivo
protocolConditions: dog, IV; 50% inhibition of isoprenaline tachycardia; read-out: ID50 ISOPRENALINE β1
assayReadout: ED50

Incoming: Sample Cc1ccccc1OCC(O)CNC(C)(C)Cc1c[nH]c2ccccc12 (stereo not shown) — what was its ED50?
Outgoing: 0.01 to 0.1 mg/kg

Incoming: Sample Cc1ccccc1OCC(O)CNC(CO)Cc1c[nH]c2ccccc12 (racemic) — what was its ED50?
Outgoing: 0.3 to 1 mg/kg

Incoming: Sample Cc1ccccc1OC[C@@H](O)CN[C@@H](CO)Cc1c[nH]c2ccccc12 — what was its ED50?
Outgoing: 0.3 mg/kg

Others:
Incoming: Sample Cc1ccccc1OC[C@H](O)CN[C@@H](CO)Cc1c[nH]c2ccccc12 — what was its ED50?
Outgoing: > 3 mg/kg

Incoming: Sample NC(=O)Cc1ccc(OCC(O)CNCCc2c[nH]c3ccccc23)cc1 (stereo not shown) — what was its ED50?
Outgoing: 1 to 3 mg/kg

Incoming: Sample Cc1ccccc1OC[C@@H](O)CN[C@H](CO)Cc1c[nH]c2ccccc12 — what was its ED50?
Outgoing: 0.1 to 0.3 mg/kg

Incoming: Sample Cc1ccccc1OC[C@H](O)CN[C@H](CO)Cc1c[nH]c2ccccc12 — what was its ED50?
Outgoing: 3 mg/kg

====

assayedTarget: β1 receptor (Canis lupus familiaris, UniProt P79148)
Construct: plasmic membranes of hearts of dogs (β1 receptor); from tissue; host or cells: dog heart plasma membranes
methodDescription: Displacement of 3H dihydroalprenolol, plasmic membranes of hearts of dogs
Format: binding, dog
protocolConditions: dog heart membranes; 3H dihydroalprenolol 4×10^-9 M
Collected log10 of EC50 values appear next to each entry.
Kindly note that the scale is log10 and the underlying EC50 is in nM.

Incoming: Sample Cc1ccccc1OC[C@@H](O)CN[C@@H](CO)Cc1c[nH]c2ccccc12 — what was its log10 of EC50?
Outgoing: 2.13

Incoming: Sample CC(Cc1c[nH]c2ccc(Cl)cc12)NCC(O)COc1ccc(CC(N)=O)cc1 (stereo not shown) — what was its log10 of EC50?
Outgoing: 2.80

Others:
Incoming: Sample CCCC(=O)Nc1ccc(OCC(O)CNC(C)Cc2c[nH]c3ccccc23)c(C(C)=O)c1 (stereo not shown) — what was its log10 of EC50?
Outgoing: 2.74

Incoming: Sample Cc1ccccc1OC[C@H](O)CN[C@@H](CO)Cc1c[nH]c2ccccc12 — what was its log10 of EC50?
Outgoing: 3.87

====

assayedTarget: β1 receptor (Canis lupus familiaris)
Construct: plasmic membranes of hearts of dogs (β1 receptor); from tissue; host or cells: dog heart plasma membranes
methodDescription: Displacement of 3H dihydroalprenolol, plasmic membranes of hearts of dogs
Format: binding, dog
assayReadout: log10 EC50 (log10 of the value in µM)
Kindly note that the scale is log10 and the underlying EC50 is in µM.

Sample records with log10 EC50:
Incoming: Sample CC(Cc1c[nH]c2ccc(F)cc12)NCC(O)COc1ccccc1 (stereo not drawn) — what was its log10 EC50?
Outgoing: -1.47

Incoming: Sample CC(Cc1c[nH]c2ccccc12)NCC(O)COc1ccccc1C(=O)c1ccccc1 (stereo not drawn) — what was its log10 EC50?
Outgoing: -2.10

Incoming: Sample Cc1ccccc1OCC(O)CNC(C)Cc1c[nH]c2ccc(F)cc12 (stereo not drawn) — what was its log10 EC50?
Outgoing: -1.72

Incoming: Sample CC(Cc1c[nH]c2ccccc12)NCC(O)COc1ccccc1C#N (stereo not drawn) — what was its log10 EC50?
Outgoing: -1.87

Incoming: Sample Cc1ccccc1OCC(O)CNC(C)Cc1c[nH]c2ccccc12 (stereo not drawn) — what was its log10 EC50?
Outgoing: -1.51

Incoming: Sample Cc1cccc(OCC(O)CNC(C)Cc2c[nH]c3ccccc23)c1 (stereo not drawn) — what was its log10 EC50?
Outgoing: -1.28

Incoming: Sample CC(Cc1c[nH]c2ccccc12)NCC(O)COc1ccccc1Cl (stereo not drawn) — what was its log10 EC50?
Outgoing: -1.56

Incoming: Sample CC(Cc1c[nH]c2ccccc12)NCC(O)COc1cccc2[nH]ccc12 (stereo not drawn) — what was its log10 EC50?
Outgoing: -2.40

// switching to the query compound
Incoming: Sample CC(Cc1c[nH]c2ccccc12)NCC(O)COc1ccccc1[N+](=O)[O-] (stereo not drawn) — what was its log10 EC50?
Outgoing: -1.55

Origin of the recorded values: patent US4404217A
